Where do the numbers come from? From the supplement of paper PMC3545927.

- System Tested: furin, P09958;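 also: purified furin at 1:10 enzyme:substrate in 50 mM HEPES pH 7.5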
- Sequence (P09958 whole entry): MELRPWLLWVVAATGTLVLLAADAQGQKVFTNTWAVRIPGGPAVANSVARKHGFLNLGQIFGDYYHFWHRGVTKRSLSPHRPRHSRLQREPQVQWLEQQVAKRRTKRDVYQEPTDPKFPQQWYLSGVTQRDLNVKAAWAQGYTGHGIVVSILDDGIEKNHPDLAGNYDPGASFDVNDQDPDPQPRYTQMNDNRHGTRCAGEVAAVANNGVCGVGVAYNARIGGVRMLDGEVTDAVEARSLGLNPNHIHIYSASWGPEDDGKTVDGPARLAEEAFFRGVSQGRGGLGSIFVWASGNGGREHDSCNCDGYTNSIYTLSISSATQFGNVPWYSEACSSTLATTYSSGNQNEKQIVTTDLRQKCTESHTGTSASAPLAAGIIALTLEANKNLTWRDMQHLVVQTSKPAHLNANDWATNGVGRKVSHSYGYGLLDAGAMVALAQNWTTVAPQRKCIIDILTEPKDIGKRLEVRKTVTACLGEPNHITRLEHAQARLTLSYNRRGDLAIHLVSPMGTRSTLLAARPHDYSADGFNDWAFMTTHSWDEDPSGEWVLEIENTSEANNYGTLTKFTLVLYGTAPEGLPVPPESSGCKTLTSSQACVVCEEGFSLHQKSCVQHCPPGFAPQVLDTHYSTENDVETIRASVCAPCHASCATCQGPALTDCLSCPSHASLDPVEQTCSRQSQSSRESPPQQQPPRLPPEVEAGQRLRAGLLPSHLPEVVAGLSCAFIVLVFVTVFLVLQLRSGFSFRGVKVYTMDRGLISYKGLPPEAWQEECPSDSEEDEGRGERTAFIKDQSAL
- Assay Info: furin cleavage Z-score vs untreated control; higher = more cleavage, active = 3.5 or more, inactive = 1 or less, 8 variable residues between constant flanks
- Experimental Context: 30 min
The other results are listed elsewhere or left out. The true hit rate is not given.
Reply using exactly one outcome from active, inactive

Solved entries (count: 4):
Primary Sequence | Classification
CARAARVPRTAGNASASA [FS-1476] | active
CALFRRRRRGAGNASASA [FS-606] | active
CALLSRKKREAGNASASA [FS-271] | active
CATLTCGFADAGNASASA [HC223] | inactive

Lab log entry: CAPPSRARRRAGNASASA [FS-73] — outcome as called in the assay?
active

Same question for CARRFRVVSGAGNASASA [FS-1774] please.
inactive

Same question for CAPPSREKKVAGNASASA [FS-1051] please.
inactive

Same question for CALSRRLKRAAGNASASA [FS-460] please.
active

Same question for CAAPARERRGAGNASASA [FS-6] please.
active
